Kindly supply the reported Inhibition values for the records listed here.
tested on: Cryptococcus neoformans; settings: Concentration 32 ug.mL-1; ASSAY_TEST Inhibition of Fungal Growth; detection method Resazurin; Absorption (OD600-OD570); plate type 384well; NBS; CORNING #3640
Results with a measured potency or affinity are listed apart.
Just the number in %, nothing appended.

Bench note: what Inhibition did `Cc1nc2c3cnn(-c4ccccc4)c3nc(C)n2n1` show?
-6.35

Then `Cc1nc(NCc2ccccc2)c2cnn(-c3ccccc3)c2n1` ?
-3.46

Now the compound CC1Cc2c(Br)nc3nc4c(c(N)c3c2NC1=O)CCCC4 (configuration not stated)
-91.63

Same for `O=C1OC(c2ccccc2)=NC1=Cc1ccc([N+](=O)[O-])cc1`
-3.36

Also check `CCCCNNC(=O)c1cc2ccccc2[nH]1`
-1.71

Now the same for `COc1ccc(-c2cc(-c3cc4ccccc4nc3Cl)cc(=O)[nH]2)cc1`
-53.36

Then what about the compound COc1cc(C2C(C#N)=C(N)Oc3c2ccc2ccccc32)ccc1O (configuration not stated) ?
-42.63

// same read-out, input: `Cc1nc(Nc2ccccc2)c2cnn(-c3ccccc3)c2n1`
-5.65

Now consider O=Cc1c[nH]c2ccccc12 [3-FORMYLINDOLE] and answer again.
-4.21

Try this compound next: Cc1ccc(C(O)SNNc2ncnc3c2cnn3-c2ccccc2)cc1 (configuration not stated)
-4.5

Entry to check: `COC(=O)C1CCN(Cc2ccccc2)CC1`
-2.37

Lookup CCOC(=O)C1=C(C)Nc2nc3c(c(N)c2C1c1cccc(OC)c1)CCCC3 (configuration not stated)
-90.12

---

test system: Candida albicans; details: 32 ug/mL
Measured potencies and affinities stand elsewhere.
Kindly state Inhibition for each of the entries shown.
Record the value in %, omitting the unit from your answer.

Consider the molecule `O=C(NNCc1c[nH]c2ccccc12)c1cccc2ccccc12` and give its measured Inhibition.
1.53

Record: N#CC1(Br)C(=NBr)Oc2c(ccc3ccccc23)C1c1ccccc1[N+](=O)[O-] (stereo not given)
25

What do we get for `O=C1OC(c2ccc([N+](=O)[O-])cc2)=NC1=Cc1ccccc1` ?
1.83

Now the molecule `Br.C#CCNCc1ccccc1`
-0.33

// query: `N#Cc1cc2c(N)n[nH]c2nc1N`
0.04

One more molecule: Nc1n[nH]c2c1C(c1ccccc1)CC(=O)N2 (stereo not given)
1.67

Thanks! And `N#Cc1c(N)nc(NCCC2CCN(Cc3ccccc3)CC2)c(C#N)c1-c1ccccc1` ?
4.31

Queued: `COc1nc(N)c(C#N)c(-c2ccccc2)c1C#N`
1.23

Continue with `CCOc1nc(N)c(C#N)cc1C#N.Cl`
2.86

Same question, `Cc1nc2c3cnn(-c4ccccc4)c3ncn2n1` this time
0.21

Now try NC1(C(=O)O)CC1c1ccc2c(c1)OCO2 (stereo not given) .
-1.13

One more molecule: `Cc1nn(-c2ccccc2)c2nc(C)n3nc(-c4ccccc4)nc3c12`
-2.98

Here is the next molecule: `CCOc1nc2nc(CCc3ccccc3)ccc2c(-c2ccccc2)c1C#N`
7.93

Param item: CCOC(=O)C1=C(C)NC(N)=C(C#N)C1c1ccc([N+](=O)[O-])cc1 (stereo not given)
2.04

Record: `C#CCN(C)c1ncc(C#N)c(N)n1`
5.2

Please do the same for `CCOC(=O)c1c[nH]c2ccc(OC)cc12` as well.
3.61

What do we get for `N#Cc1cc(C#N)c(N2CCCC2)nc1N1CCCC1` ?
-0.31

Check Cn1ccnc1C1c2ccc3ccccc3c2Oc2nc3c(c(N)c21)CCCCC3 (stereo not given) too.
1.99

Likewise for `COc1nc(N)c(C#N)cc1C#N` ?
3.36

Cool, now `COc1ccc2c(c1)cc(/C=C/[N+](=O)[O-])n2C`
2.82

Now the same for `CN1C/C(=C\Br)n2c1c(C#N)cc(C#N)c2=O`
3.61

Follow-up entry: `Cc1cnc2ccc(Cl)cn12`
0.97

# iterate: `COc1nc(Cl)c(C#N)c(-c2ccccc2)c1C#N`
31.9

// query: `O=C(Cc1c[nH]c2ccccc12)NNCc1ccccc1`
0.22

Now the molecule CCCC(C)NNC(=O)Cc1c[nH]c2ccccc12 (stereo not given)
0.38

Same question, `O=C(COc1ccc2ccccc2c1)NNCc1c[nH]c2ccccc12` this time
3.01

Next entry: `O=C(NNC(Cc1ccccc1)Cc1ccccc1)c1cc2ccccc2[nH]1`
-2.25

Do the same for `N#Cc1c(N)nc(N2CCC(Cc3ccccc3)CC2)c(C#N)c1-c1ccccc1` please
1.84

And `C#CCNc1nc(NC2CCN(Cc3ccccc3)CC2)c(C#N)c(-c2ccccc2)c1C#N` ?
5.21

Consider next the molecule `O=Cc1ccc(OCCO[N+](=O)[O-])cc1` in the same way.
5.46

Field entry: `Cc1nc(Nc2ccccc2)c2c(C)nn(-c3ccccc3)c2n1`
-2.39

# iterate: `O[C@H]1CC[C@H](NCc2ccccc2)CC1`
-0.77

Would you mind doing `C#CCNc1nc(NCC#C)c(C#N)cc1C#N` as well?
3.76

Now consider `N#CC1=C(N)Oc2ccc3ccccc3c2C1` .
0.68

Continue with COc1ccc(C2c3ccc4ccccc4c3OC(=NBr)C2(Br)C#N)cc1 (stereo not given)
2.22
